- Tested on: P388 leukemia ip, CD2F1 mice, survival T/C
- EXPERIMENT_NOTES: NCI In Vivo Anticancer Drug Screen. Data for tumor model P388 Leukemia (intraperitoneal) in CD2F1 (CDF1) mice
- CONDITION: endpoint: median survival time; dose: 400.0 mg/kg/injection; schedule: Q01DX009 (ip); vehicle: Klucel (hydroxypropylcellulose) (HPC); higher = longer survival
Toxic doses and inconclusive results are not listed.
Exercise: for every item that follows, state its recorded T/C.

Please give the documented T/C of `CCC(=O)O[C@H]1CC[C@H]2[C@@H]3CC[C@H]4CCCC[C@]4(C)[C@H]3CC[C@]12C`
105 % of control

Return the recorded T/C value; entry: `c1cc2c3c(cccc3c1)-c1nc3c(ccc4ccccc43)nc1-2`
107 % of control

Output measured T/C for this item: `O=C1c2ccccc2C(=O)N1SN1C(=O)c2ccccc2C1=O`
109 % of control

Supply reported T/C belonging to this molecule: CC1(C)CC(O)(Cc2ccccc2)C(=O)c2ccccc21 (centres undefined)
86 % of control

For the molecule COC1/C=C\OC2(C)Oc3c(C)c(O)c4c(O)c(c(CN(C)CCO)c(O)c4c3C2=O)NC(=O)/C(C)=C\C=C/C(C)C(O)C(C)C(O)C(C)C(OC(C)=O)C1C (centres undefined) , give its reported T/C.
96 % of control

Give T/C for `S=C1OCCO1`
105 % of control

# per-item lookup of T/C; items listed below
1. O=S(=O)(SC(S(=O)(=O)c1ccccc1)S(=O)(=O)c1ccccc1)c1ccccc1
2. CCCCCCCCCc1ccc(OC(=O)CCC)cc1
3. Cc1n[nH]c(=S)n1N

1. 123 % of control
2. 99 % of control
3. 88 % of control
